Listing of entries alongside the reported pKd.
# Target system: T1, AP4 β4 C-terminal appendage domain (residues 612–739), wild type (UniProt Q9Y6B7 612-739)
# T1 sequence (looked up): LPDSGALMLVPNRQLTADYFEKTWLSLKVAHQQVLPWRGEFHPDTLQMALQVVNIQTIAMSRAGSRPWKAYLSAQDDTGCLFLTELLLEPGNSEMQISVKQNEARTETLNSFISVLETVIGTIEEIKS
# Assay overview: ITC
pKd: −log10 of the molar value.

Prompt: What value of pKd has been recorded for this entry: tepsin fragment (residues 450–500) L470S/F471S, GST removed (domain or fragment, UniProt Q96N21 450-500, looked up) PGGTDSPKRGPSSCAWSRDSSSAGMELVACPRLVGAGAAAGESCPDAPRAP
Completion: < 3.52

Prompt: What value of pKd has been recorded for this entry: tepsin C-terminal fragment (residues 450–500), GST removed (domain or fragment, UniProt Q96N21 450-500, looked up) PGGTDSPKRGPSSCAWSRDSLFAGMELVACPRLVGAGAAAGESCPDAPRAP
Completion: 5.54

Please find the next binder below.
Prompt: What value of pKd has been recorded for this entry: tepsin fragment (residues 450–500) G473I/M474Q, GST removed (domain or fragment, UniProt Q96N21 450-500, looked up) PGGTDSPKRGPSSCAWSRDSLFAIQELVACPRLVGAGAAAGESCPDAPRAP
Completion: < 3.52
